assayed system: Human Calpain 1/NS1 (Homo sapiens, UniProt P07384)
Sequence (P07384 whole entry): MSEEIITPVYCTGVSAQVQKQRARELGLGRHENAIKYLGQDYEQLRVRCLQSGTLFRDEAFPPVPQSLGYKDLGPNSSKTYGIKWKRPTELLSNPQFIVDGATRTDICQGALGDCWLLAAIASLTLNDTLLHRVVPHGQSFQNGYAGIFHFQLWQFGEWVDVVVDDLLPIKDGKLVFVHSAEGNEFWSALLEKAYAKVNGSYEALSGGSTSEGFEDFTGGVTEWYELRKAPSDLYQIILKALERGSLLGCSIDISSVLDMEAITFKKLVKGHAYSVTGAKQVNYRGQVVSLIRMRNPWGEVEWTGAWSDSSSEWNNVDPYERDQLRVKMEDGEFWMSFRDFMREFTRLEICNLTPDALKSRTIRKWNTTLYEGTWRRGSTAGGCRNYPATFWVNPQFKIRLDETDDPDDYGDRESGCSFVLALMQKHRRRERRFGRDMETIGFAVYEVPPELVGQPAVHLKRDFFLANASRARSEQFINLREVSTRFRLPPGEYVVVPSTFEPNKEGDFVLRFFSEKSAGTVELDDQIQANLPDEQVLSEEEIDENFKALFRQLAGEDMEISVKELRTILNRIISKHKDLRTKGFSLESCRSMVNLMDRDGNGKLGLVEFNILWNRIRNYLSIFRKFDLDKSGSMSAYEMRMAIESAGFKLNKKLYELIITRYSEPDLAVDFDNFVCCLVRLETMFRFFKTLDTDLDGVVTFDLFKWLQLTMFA
Sequence (P04632 whole entry partner): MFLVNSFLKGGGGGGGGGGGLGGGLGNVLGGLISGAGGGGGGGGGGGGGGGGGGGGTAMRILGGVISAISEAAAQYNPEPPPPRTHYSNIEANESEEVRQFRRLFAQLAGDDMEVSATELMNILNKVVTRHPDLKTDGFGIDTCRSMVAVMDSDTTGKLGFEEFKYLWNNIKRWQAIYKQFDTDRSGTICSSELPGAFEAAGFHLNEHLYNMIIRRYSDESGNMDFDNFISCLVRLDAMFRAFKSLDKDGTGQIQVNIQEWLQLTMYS
assay procedure: Calpain inhibition continuous fluorescence (FRET) assay, Human Calpain 1/NS1
Assay type: biochemical
test conditions: read-out: Human Calpain 1/NS1 IC50

{"columns": ["molecule", "IC50"],
 "data": [
  ["COc1nccc(-n2nc(C)cc2C(=O)NC(Cc2ccccc2)C(=O)C(N)=O)n1 (stereo not shown)", "< 3 µM"],
  ["NC(=O)C(=O)C(Cc1ccccc1)NC(=O)c1oc(C2CC2)nc1-c1ccccc1 (stereo not shown)", "< 3 µM"],
  ["Cc1cc(F)cc(-c2nn(C(F)F)cc2C(=O)NC(Cc2ccccc2)C(=O)C(N)=O)c1 (stereo not shown)", "< 3 µM"],
  ["Cn1cc(C(=O)NC(Cc2ccccc2)C(=O)C(N)=O)c(C(=O)c2ccccc2)n1 (stereo not shown)", "> 10 µM"],
  ["Cn1cc(C(=O)NC(Cc2ccccc2)C(=O)C(N)=O)c(-c2n[nH]c3ccccc23)n1 (stereo not shown)", "3 to 10 µM"],
  ["NC(=O)C(=O)C(Cc1ccccc1)NC(=O)c1c(Cl)cnn1-c1ncccn1 (stereo not shown)", "< 3 µM"],
  ["Cc1ccc(F)c(-c2oncc2C(=O)NC(Cc2ccccc2)C(=O)C(N)=O)c1 (stereo not shown)", "< 3 µM"]
]}
